Can you tell me protein stability index for the items I'm about to list?
B1: CDC25B (parent)
chain: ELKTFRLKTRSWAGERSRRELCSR

- Variants of: B1
- protocolText: protein stability index of a GFP-peptide fusion (GPS, HEK-293T) (PSI 1-6); higher = more stable;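 note: lentivirally expressed fusions sorted by FACS into six bins by GFP to DsRed ratio, PSI derived from sequencing read proportions per bin multiplied by bin number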
- conditionSummary: c terminus: a fixed tail appended
# print the numeric value only

input: Consider the variant shown here: E1K What is its recorded protein stability index?
output: 2.97

input: Consider the variant shown here: E15R What is its recorded protein stability index?
output: 3.06

input: Consider the variant shown here: L7W What is its recorded protein stability index?
output: 2.99

input: Consider the variant shown here: S11G What is its recorded protein stability index?
output: 2.94

input: Consider the variant shown here: C22P What is its recorded protein stability index?
output: 3.01

input: Consider the variant shown here: R16M What is its recorded protein stability index?
output: 2.97

input: Consider the variant shown here: R10H What is its recorded protein stability index?
output: 3.04

Reference source: the supplement of paper PMC10567573
